- assay_target: transferrin receptor (hTfR) (Homo sapiens)
- Sequence (P02786 whole entry): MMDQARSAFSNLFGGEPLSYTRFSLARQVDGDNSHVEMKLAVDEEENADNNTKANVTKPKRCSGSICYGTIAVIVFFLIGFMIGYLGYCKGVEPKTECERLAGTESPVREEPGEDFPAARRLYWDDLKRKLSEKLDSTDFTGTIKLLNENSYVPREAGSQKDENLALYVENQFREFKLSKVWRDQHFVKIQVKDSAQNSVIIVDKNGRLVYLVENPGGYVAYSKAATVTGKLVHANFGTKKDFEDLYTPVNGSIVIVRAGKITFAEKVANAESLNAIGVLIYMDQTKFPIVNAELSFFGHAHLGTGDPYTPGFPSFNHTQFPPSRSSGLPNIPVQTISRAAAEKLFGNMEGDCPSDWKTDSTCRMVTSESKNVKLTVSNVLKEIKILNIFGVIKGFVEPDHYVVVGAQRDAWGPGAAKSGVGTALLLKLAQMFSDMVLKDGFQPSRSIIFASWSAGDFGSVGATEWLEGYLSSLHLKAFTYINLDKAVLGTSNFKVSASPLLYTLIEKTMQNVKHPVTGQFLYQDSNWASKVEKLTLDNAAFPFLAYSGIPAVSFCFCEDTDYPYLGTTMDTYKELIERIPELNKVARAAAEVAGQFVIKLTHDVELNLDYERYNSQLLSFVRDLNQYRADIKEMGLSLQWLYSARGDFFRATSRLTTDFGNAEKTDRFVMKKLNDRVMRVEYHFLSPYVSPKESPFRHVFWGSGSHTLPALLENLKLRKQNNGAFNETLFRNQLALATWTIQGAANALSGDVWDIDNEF
- test_summary: Intermolecular interaction evaluation test between transferrin receptor (hTfR) and peptide by surface plasmon resonance (SPR)
- Format: binding
- measurement_context: binding to hTfR by SPR; Table 2 peptides; read-out: KD value (SPR) class
Where a SMILES comes first, the peptide text is derived from it. Bridges are numbered along the chain shown (N, C = ends). [ ]: non-standard residue; d: D form. NMeY = CN[C@@H](Cc1ccc(O)cc1)C(=O)O
measured_quantity: Kd

See these solved cases before continuing.
>>> result_value("CC[C@H](C)[C@@H]1NC(=O)[C@H](Cc2ccc(O)cc2)NC(=O)[C@H](Cc2ccc(O)cc2)NC(=O)[C@H](CC(N)=O)NC(=O)[C@H](Cc2c[nH]c3ccccc23)NC(=O)[C@H](C(C)C)NC(=O)[C@H](Cc2ccccc2)NC(=O)[C@H](C(C)C)NC(=O)[C@H](C)NC(=O)CSC[C@@H](C(N)=O)NC(=O)[C@H](Cc2ccc(O)cc2)N(C)C(=O)[C@H](Cc2ccc(O)cc2)NC(=O)[C@H](CCCNC(=N)N)NC(=O)[C@H](CCCNC(=N)N)NC(=O)[C@H](CCCCN)NC1=O [compound 249] ({CH2CO}-AVFVWNYYIKRRY[NMeY]C-NH2; thioether N-15)")
"< 1 nM"
>>> result_value("CC[C@H](C)[C@@H]1NC(=O)[C@H](Cc2ccc(O)cc2)NC(=O)[C@H](Cc2ccc(O)cc2)NC(=O)[C@H](CC(N)=O)NC(=O)[C@H](Cc2c[nH]c3ccccc23)N(C)C(=O)[C@H](C(C)C)NC(=O)[C@H](Cc2ccccc2)NC(=O)[C@H](C(C)C)NC(=O)[C@H](C)NC(=O)CSC[C@@H](C(N)=O)NC(=O)[C@H](Cc2ccc(O)cc2)N(C)C(=O)[C@H](Cc2ccc(O)cc2)NC(=O)[C@H](CCCNC(=N)N)NC(=O)[C@H](CCCNC(=N)N)NC(=O)[C@H]([C@@H](C)CC)NC1=O [compound 263]")
"< 1 nM"
>>> result_value("CC[C@H](C)[C@@H]1NC(=O)[C@H](Cc2ccc(O)cc2)NC(=O)[C@H](Cc2ccc(O)cc2)NC(=O)[C@H](CC(N)=O)NC(=O)[C@H](Cc2c[nH]c3ccc(Cl)cc23)NC(=O)[C@H](C(C)C)NC(=O)[C@H](Cc2ccccc2)N(C)C(=O)[C@H](C(C)C)NC(=O)[C@H](C)NC(=O)CSC[C@@H](C(N)=O)NC(=O)[C@H](Cc2ccc(O)cc2)N(C)C(=O)[C@H](Cc2ccc(O)cc2)NC(=O)[C@H](CCCNC(=N)N)NC(=O)[C@H](CCCNC(=N)N)NC(=O)[C@H]([C@@H](C)CC)NC1=O [compound 268]")
"1 to 100 nM"

Lab note: next molecule to report on.
### Prompt Dear colleague, I am looking for the recorded Kd of the following molecule: CC[C@H](C)[C@@H]1NC(=O)[C@H](Cc2ccc(O)cc2)NC(=O)[C@H](Cc2ccc(O)cc2)NC(=O)[C@H](CC(N)=O)NC(=O)[C@H](Cc2c[nH]c3ccc(F)cc23)NC(=O)[C@H](C(C)C)NC(=O)[C@H](Cc2ccccc2)N(C)C(=O)[C@H](C(C)C)NC(=O)[C@H](C)NC(=O)CSC[C@@H](C(N)=O)NC(=O)[C@H](Cc2ccc(O)cc2)N(C)C(=O)[C@H](Cc2ccc(O)cc2)NC(=O)[C@H](CCCNC(=N)N)NC(=O)[C@H](CCCNC(=N)N)NC(=O)[C@H]([C@@H](C)CC)NC1=O [compound 269]
### Response 1 to 100 nM
